Form field: selectivity ratio (one value per entry).
method-notes: Selectivity index, ratio of IC50 for rat L6 cells to IC50 for Trypanosoma brucei rhodesiense STIB900
Format: toxicity, cell-based
stated-conditions: read-out: Ratio IC50
Please reply with the number alone, leaving off any unit.

Solved cases below.
# smiles-entry, property-measured, recorded-number
rows = [
    ("O=C(NN(Cc1ccccc1)Cc1ccccc1)c1ccccc1Cl", "selectivity ratio", 0.9),
    ("O=C1C[N+]2(CCCCC2)c2ccc([N+](=O)[O-])cc21", "selectivity ratio", 0.4),
    ("Cn1c(=O)c2cc([N+](=O)[O-])ccc2n1Cc1ccccc1", "selectivity ratio", 1),
    ("O=[N+]([O-])c1ccc2[nH]nc(OCc3ccccc3Cl)c2c1", "selectivity ratio", 0.4),
    ("O=C(NN1Cc2ccccc2CN1)c1cc([N+](=O)[O-])ccc1Cl", "selectivity ratio", 2.2),
    ("O=C(NN(Cc1ccccc1)Cc1ccccc1)c1cc([N+](=O)[O-])ccc1F", "selectivity ratio", 1.1),
]

Quick note, selectivity ratio for CCCCn1c2ccc([N+](=O)[O-])cc2c(=O)n1Cc1ccccc1 landed at 1

Quick note, selectivity ratio for O=C(NN1Cc2ccccc2C1)c1ccccc1F landed at 1.5

Quick note, selectivity ratio for O=C(NN(c1ccccc1)c1ccccc1)c1cc([N+](=O)[O-])ccc1F landed at 0.6

Quick note, selectivity ratio for CCCn1c2ccc([N+](=O)[O-])cc2c(=O)n1Cc1ccccc1 landed at 3.9
